Could you please report measured viability for the items listed next?
Test: SK-BR-3 cell growth inhibitors, pilot screen, 24 h, human (AID 572);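 also: compound exposure lasted between 18 and 24 h rather than exactly 24 h; 100% = carrier-treated control wells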
Conditions: SK-BR-3 viability, CellTiter-Glo luminescence, at 10 µM, active compounds read low
Kindly answer with a numeric value in %, unit omitted.

-- ask What does the record list as viability for O=C(CCCN1C(=O)c2ccccc2C1=O)Oc1ccc(F)cc1 ?
-- reply 98

-- ask If you can, please state the reported viability value of CCN(CCO)C1CC(=O)N(c2ccccc2C)C1=O (stereo unspecified) .
-- reply 95

-- ask Give its viability value. Item: O=C(Nc1ccc2c(c1)OCCO2)C1CCCN(S(=O)(=O)c2cnc[nH]2)C1 (stereo unspecified)
-- reply 82.5

-- ask I would be grateful if you could share the reported viability for CC(C)(C)OC(=O)N1CCC(C(=O)N2CCCCCC2)CC1 .
-- reply 94

-- ask Record request: viability value, item c1ccc(CNc2ncnc3ccccc23)cc1
-- reply 86

-- ask # input compound: O=C(c1ccc(S(=O)(=O)N2CCOCC2)cc1)N(c1ccc(F)cc1)C1C=CS(=O)(=O)C1 (stereo unspecified) ; wanted: its viability
-- reply 97.5
